system: E21 (patient-derived glioblastoma stem cells of mesenchymal subtype); assay: surviving fraction (nuclei count normalised to DMSO); higher = more cells surviving (less toxic); conditions: 3000 nM; exposure time: 72 h
Output schema: class label derived from surviving fraction. Mapping: low value = under 0.1, medium value = from 0.1 up to 0.8, high value = 0.8 and over

Study these solved cases before continuing.
INSERT INTO results (molecule, category) VALUES
  ('C[C@H]1O[C@@H](O[C@H]2[C@@H](O)C[C@H](O[C@H]3[C@@H](O)C[C@H](O[C@H]4CC[C@@]5(C)[C@H](CC[C@@H]6[C@@H]5C[C@@H](O)[C@]5(C)[C@@H](C7=CC(=O)OC7)CC[C@]65O)C4)O[C@@H]3C)O[C@@H]2C)C[C@H](O)[C@@H]1O', 'medium value'),
  ('CC(C)C[C@H](NC(=O)[C@H](CCc1ccccc1)NC(=O)CN1CCOCC1)C(=O)N[C@@H](Cc1ccccc1)C(=O)N[C@@H](CC(C)C)C(=O)[C@@]1(C)CO1', 'low value');

Consider `Cc1cc(Nc2cc(N3CCN(C)CC3)nc(Sc3ccc(NC(=O)C4CC4)cc3)n2)n[nH]1` . To which surviving fraction class does it belong? medium value

----------
tested on: FT3469 (normal neural stem cell line); test: phenotypic distance (Euclidean, principal components) from DMSO controls (arbitrary units); higher = stronger morphological change; conditions: 111.1 nM; exposure time: 72 h;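 further: cell Painting imaging in 384-well plates, CellProfiler features reduced to at least 20 principal components, Euclidean distance versus same-plate DMSO vehicle wells (0.1% v/v), median over six images per well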
Observable: phenotypic distance
Reply briefly: the number, and no unit.

INSERT INTO measurements (compound, experimental_target, value) VALUES
  ('CC(C)C(=O)OCC(=O)[C@@]12O[C@H](C3CCCCC3)O[C@@H]1C[C@H]1[C@@H]3CCC4=CC(=O)C=C[C@]4(C)[C@H]3[C@@H](O)C[C@@]12C [Ciclesonide]', 'FT3469', 1.37),
  ('COc1ccc(/C=C\c2cc(OC)c(OC)c(OC)c2)cc1OP(=O)(O)O [Fosbretabulin Disodium]', 'FT3469', 0.517),
  ('COC(=O)Nc1nc2cc(Sc3ccccc3)ccc2[nH]1', 'FT3469', 1.42),
  ('CCC(=O)OCC(=O)[C@@]1(OC(=O)CC)[C@H](C)C[C@H]2[C@H]3[C@H]([C@@H](O)C[C@@]21C)[C@@]1(C)C=CC(=O)C=C1C[C@H]3Cl [Alclometasone dipropionate]', 'FT3469', 2.12),
  ('Clc1ccc(CSC(Cn2ccnc2)c2ccc(Cl)cc2Cl)cc1 (configuration not stated) [Sulconazole nitrate]', 'FT3469', 0.999);

// phenotypic distance lookup, compound = Clc1ccc(COC(Cn2ccnc2)c2ccc(Cl)cc2Cl)cc1 (configuration not stated) [Econazole nitrate] , result: 0.741

Recorded result, c1ccc2c(c1)[I+]c1ccccc1-2 [Diphenyleneiodonium chloride] , phenotypic distance: 1.56

----------
system: E34 (patient-derived glioblastoma stem cells of proneural subtype); test: surviving fraction (nuclei count normalised to DMSO); higher = more cells surviving (less toxic); conditions: 1000 nM; exposure time: 72 h
Structures can show the parent of a compound that is named as a salt.
Observable: surviving fraction
Give the figure only, with no unit attached.

Below are worked cases with known answers.
INSERT INTO assay_data (compound, value) VALUES
  ('COC(=O)C[C@](O)(CCCC(C)(C)O)C(=O)O[C@@H]1C(OC)=C[C@]23CCCN2CCc2cc4c(cc2[C@H]13)OCO4 [Homoharringtonine]', 0.412),
  ('CC(C)NCC(O)COc1cccc2ccccc12 (configuration not stated) [Propranolol hydrochloride]', 1.1),
  ('OC[C@H]1NC[C@H](O)[C@@H](O)[C@@H]1O [1-Deoxynojirimycin]', 0.997),
  ('NCCNc1ccc(NCCN)c2c1C(=O)c1ccncc1C2=O [Pixantrone dimaleate]', 0.588),
  ('CN1[C@@H]2CC[C@H]1CC(OC(=O)c1c[nH]c3ccccc13)C2 (some centres not stated) [3-Tropanyl-indole-3-carboxylate hydrochloride]', 0.885),
  ('COc1cccc2c1C(=O)c1c(O)c3c(c(O)c1C2=O)C[C@@](O)(C(=O)CO)C[C@@H]3O[C@H]1C[C@H](N)[C@H](O)[C@H](C)O1 [Doxorubicin hydrochloride]', 0.346);

Now examine the next entry.
surviving fraction reading for c1ccc2c(c1)[I+]c1ccccc1-2 [Diphenyleneiodonium chloride] : 0.519

All values here come from the supplement of paper PMC13207355.
